Data provenance is patent US20240109912A1.

# Test system: RNA polymerase II Serine 5 phosphorylation (CDK7) in A549 cells
MEASURED METRIC: IC50 (nM)

Worked set:
[
  {
    "MOLECULE": "C=CC(=O)N1CCC(N2CC(c3cc(C)c4c(c3)Nc3ncnc(N5CCOCC5)c3CO4)C2)C(F)C1 (stereo not drawn) [compound 29]",
    "IC50, nM": 1120
  },
  {
    "MOLECULE": "CC#CC(=O)N1CC[C@H](N2CCC(c3cc(C)c4c(c3)Nc3ncnc(N5CCS(=O)(=O)CC5)c3CO4)CC2)C1 (single isomer, unassigned)",
    "IC50, nM": 83.2
  },
  {
    "MOLECULE": "C=CC(=O)N1CC[C@H](N2CCC(c3ccc4c(c3)Nc3ncnc(N5CCOCC5)c3CO4)CC2)C1",
    "IC50, nM": 891
  }
]

(A) CC#CC(=O)N1CC(N2CC(c3cc(C)c4c(c3)Nc3ncnc(N5CCS(=O)(=O)CC5)c3[C@@H](C)O4)C2)C(C)(C)C1 (mixture of isomers)
(B) C=CC(=O)N1CCC(N2CCC(c3cc(C)c4c(c3)Nc3ncnc(N5CCS(=O)(=O)CC5)c3CO4)CC2)CC1
Which of the two items, A and B , has the greater recorded IC50? Please reply using the label of the selected record.
A

----------
# TARGET OR TEST SYSTEM: CDK7/cyclinH/MAT1 trimeric complex (Homo sapiens (Human))
# TEST: In vitro CDK7 assay, potency of irreversible covalent inhibitors (kinact/KI)
# SETUP CONDITIONS: read-out: CDK7 (20 nM enz.) (kinact/ KI, M^−1*s^−1), 20 nM enz.
MEASURED METRIC: kinact/KI (M⁻¹ s⁻¹)

[
  {
    "MOLECULE": "C=CC(=O)N1CC(N2CCC(c3ccc4c(c3)Nc3ncnc(N5CCOCC5)c3[C@H](CC)O4)CC2)C1 (single isomer, unassigned) [compound 75]",
    "UNIT ABBREVIATION": "M⁻¹ s⁻¹",
    "kinact/KI": 145
  },
  {
    "MOLECULE": "C=CC(=O)N1CC(N2CC[C@H](c3cc4c(c(C)n3)OCc3c(ncnc3N3CCS(=O)(=O)CC3)N4)C2)C1 [compound 31]",
    "UNIT ABBREVIATION": "M⁻¹ s⁻¹",
    "kinact/KI": 260
  },
  {
    "MOLECULE": "C#Cc1cc(C2CCN(C3CN(C(=O)C=C)C3)CC2)cc2c1O[C@H](C)c1c(ncnc1N1CCS(=O)(=O)CC1)N2 (single isomer, unassigned) [compound 189]",
    "UNIT ABBREVIATION": "M⁻¹ s⁻¹",
    "kinact/KI": 879
  },
  {
    "MOLECULE": "C=CC(=O)N1CCC(N2CC(c3cc(C)c4c(c3)Nc3ncnc(N5CCS(=N)(=O)CC5)c3CO4)C2)CC1 [compound 105]",
    "UNIT ABBREVIATION": "M⁻¹ s⁻¹",
    "kinact/KI": 259
  },
  {
    "MOLECULE": "C=CC(=O)N1CC[C@@H](N2CC(c3cc4c(c(C5CC5)c3)OCc3c(ncnc3N3CCS(=O)(=O)CC3)N4)C2)C1 (single isomer, unassigned) [compound 93]",
    "UNIT ABBREVIATION": "M⁻¹ s⁻¹",
    "kinact/KI": 226
  },
  {
    "MOLECULE": "C=CC(=O)N1CC[C@@H](N2CCC(c3cc(F)c4c(c3)Nc3ncnc(N5CCOCC5)c3CO4)CC2)C1 (single isomer, unassigned) [compound 51]",
    "UNIT ABBREVIATION": "M⁻¹ s⁻¹",
    "kinact/KI": 137
  },
  {
    "MOLECULE": "C=CC(=O)N1CCC(N2CCC(c3ccc4c(c3)Nc3ncnc(N5CCOCC5)c3CO4)CC2)CC1 [compound 2]",
    "UNIT ABBREVIATION": "M⁻¹ s⁻¹",
    "kinact/KI": 98.7
  },
  {
    "MOLECULE": "C=CC(=O)N1CC(N2CCC(c3ccc4c(c3)Nc3ncnc(N5CCOCC5)c3[C@H](C)O4)CC2)C1 (single isomer, unassigned) [compound 57]",
    "UNIT ABBREVIATION": "M⁻¹ s⁻¹",
    "kinact/KI": 879
  },
  {
    "MOLECULE": "C=CC(=O)N1CC(N2CC[C@H](c3cc(C)c4c(c3)Nc3ncnc(N5CCOCC5)c3CO4)C2)C1 [compound 23]",
    "UNIT ABBREVIATION": "M⁻¹ s⁻¹",
    "kinact/KI": 230
  },
  {
    "MOLECULE": "C=CC(=O)N1CC[C@H](N2CC(c3cc(F)c4c(c3)Nc3ncnc(N5CCOCC5)c3CO4)C2)C1 (single isomer, unassigned) [compound 54]",
    "UNIT ABBREVIATION": "M⁻¹ s⁻¹",
    "kinact/KI": 57.2
  }
]

(I) CC#CC(=O)N1CC(N2CCC(c3cc(C)c4c(c3)Nc3ncnc(N5CCS(=O)(=O)CC5)c3[C@H](C)O4)CC2)C1 (single isomer, unassigned) [compound 150]
(II) C=CC(=O)N1CC[C@H](N2CC(c3cc4c(c(C5CC5)c3)O[C@H](C)c3c(ncnc3N3CCS(=O)(=O)CC3)N4)C2)C1 (single isomer, unassigned) [compound 95]
Compare the recorded kinact/KI of I and II ; state which is larger. Write down the label of the entry you select.
II
(II: 332 M⁻¹ s⁻¹, I: 231 M⁻¹ s⁻¹)

(I) C=CC(=O)N1CC(N2CCC(c3cc(C)c4c(c3)Nc3ncnc(N5CCS(=O)(=O)CC5)c3[C@@H](C)O4)CC2)C1 (single isomer, unassigned) [compound 84]
(II) C=CC(=O)N1CCC(N2CCC(c3ccc4c(c3)Nc3ncnc(N5CCOCC5)c3CO4)CC2)C(F)C1 (stereo not shown) [compound 15]
(III) CC#CC(=O)N1CCC(N2CC(c3cc(C)c4c(c3)Nc3ncnc(N5CCS(=O)(=O)CC5)c3CO4)C2)CC1 [compound 133]
(IV) C=CC(=O)N1CC(N2CC(c3cc(C)c4c(c3)Nc3ncnc(N5CCS(=O)(=O)CC5)c3CO4)C2)C1 [compound 111]
Order the 4 molecules from highest to lowest kinact/KI. List the labels according to the requested ordering.
IV, I, III, II
(IV: 1030 M⁻¹ s⁻¹, I: 563 M⁻¹ s⁻¹, III: 153 M⁻¹ s⁻¹, II: 90.5 M⁻¹ s⁻¹)

(1) C=CC(=O)N1CC[C@H](N2CC(c3cc4c(c(C5CC5)c3)OCc3c(ncnc3N3CCS(=O)(=O)CC3)N4)C2)C1 (single isomer, unassigned) [compound 94]
(2) CC#CC(=O)N1CC(N2CCC(c3cc4c(c(C)n3)O[C@@H](C)c3c(ncnc3N3CCS(=O)(=O)CC3)N4)CC2)C1 (single isomer, unassigned) [compound 140]
Hi team, can someone confirm which has the larger kinact/KI: 1 or 2 ? Thanks. Answer = label.
1
(1: 171 M⁻¹ s⁻¹, 2: 31.5 M⁻¹ s⁻¹)

----------
# TARGET OR TEST SYSTEM: CDK7/cyclinH/MAT1 trimeric complex (Homo sapiens (Human), UniProt P50613)
# Sequence (P50613 whole entry): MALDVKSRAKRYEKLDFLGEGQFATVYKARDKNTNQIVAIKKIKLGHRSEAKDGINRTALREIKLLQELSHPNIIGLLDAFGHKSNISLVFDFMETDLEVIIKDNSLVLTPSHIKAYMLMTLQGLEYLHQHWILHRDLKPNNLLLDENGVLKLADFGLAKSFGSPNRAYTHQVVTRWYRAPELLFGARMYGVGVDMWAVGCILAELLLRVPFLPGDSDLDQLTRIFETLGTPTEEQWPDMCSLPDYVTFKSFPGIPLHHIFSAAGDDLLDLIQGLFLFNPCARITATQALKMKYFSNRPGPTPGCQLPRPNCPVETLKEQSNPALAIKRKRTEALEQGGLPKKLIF
# Sequence (P51946 whole entry partner): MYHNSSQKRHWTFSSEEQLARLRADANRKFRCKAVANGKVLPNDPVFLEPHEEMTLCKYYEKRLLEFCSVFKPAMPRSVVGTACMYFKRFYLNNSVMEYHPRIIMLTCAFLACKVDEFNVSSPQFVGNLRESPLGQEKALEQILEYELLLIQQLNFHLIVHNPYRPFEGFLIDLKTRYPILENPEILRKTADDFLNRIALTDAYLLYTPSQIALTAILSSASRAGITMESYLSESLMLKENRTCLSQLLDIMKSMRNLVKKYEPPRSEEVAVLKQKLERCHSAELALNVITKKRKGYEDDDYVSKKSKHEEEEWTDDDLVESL
# Sequence (P51948 whole entry partner): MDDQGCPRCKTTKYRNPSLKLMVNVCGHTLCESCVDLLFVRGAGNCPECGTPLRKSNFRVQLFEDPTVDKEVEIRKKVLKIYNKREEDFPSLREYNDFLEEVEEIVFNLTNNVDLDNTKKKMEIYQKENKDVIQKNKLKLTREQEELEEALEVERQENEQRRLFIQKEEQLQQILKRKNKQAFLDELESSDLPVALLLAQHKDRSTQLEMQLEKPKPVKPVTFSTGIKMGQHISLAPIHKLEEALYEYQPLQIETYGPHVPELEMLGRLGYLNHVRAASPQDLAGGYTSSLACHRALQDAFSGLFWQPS
# TEST: In vitro CDK7 assay, potency of irreversible covalent inhibitors (kinact/KI)
# SETUP CONDITIONS: read-out: CDK7 (20 nM enz.) (kinact/ KI, M^−1*s^−1), 20 nM enz.
MEASURED METRIC: kinact/KI (M⁻¹ s⁻¹)

Example entries and their recorded answers appear below.
[
  {
    "MOLECULE": "C=CC(=O)N1CC(N2CCC(c3ccc4c(c3)Nc3ncnc(C5=CCOCC5)c3CO4)CC2)C1",
    "kinact/KI (M⁻¹ s⁻¹)": 83.4
  },
  {
    "MOLECULE": "C=CC(=O)N1CCC(N2CC(c3cc(C#N)c4c(c3)Nc3ncnc(N5CCOCC5)c3CO4)C2)CC1",
    "kinact/KI (M⁻¹ s⁻¹)": 129
  },
  {
    "MOLECULE": "C#Cc1cc(C2CCN(C3CN(C(=O)C#CC)C3)CC2)cc2c1O[C@@H](C)c1c(ncnc1N1CCS(=O)(=O)CC1)N2",
    "kinact/KI (M⁻¹ s⁻¹)": 809
  },
  {
    "MOLECULE": "C=CC(=O)N1CCC(N2CC(c3cc(C#N)c4c(c3)Nc3ncnc(-c5cnn(C)c5)c3CO4)C2)CC1",
    "kinact/KI (M⁻¹ s⁻¹)": 30.2
  }
]

(a) C=CC(=O)N1CC(N2CCC(c3cc(F)c4c(c3)Nc3ncnc(-c5cnn(C)c5)c3[C@@H](C)O4)CC2)C1 (single isomer, unassigned)
(b) [2H]C1(N2CCC(c3cc(C)c4c(c3)Nc3ncnc(N5CCS(=O)(=O)CC5)c3[C@@H](C)O4)CC2)CN(C(=O)C#CC)C1
(c) C=CC(=O)N1CC(N2CCC(c3ccc4c(c3)Nc3ncnc(N5CCOCC5)c3C(CC)O4)CC2)C1 (stereo not shown)
Sort these molecules on kinact/KI so the largest reading comes first. Please respond with the labels ordered as the question requires.
b, a, c
(b: 7340 M⁻¹ s⁻¹, a: 714 M⁻¹ s⁻¹, c: 85.5 M⁻¹ s⁻¹)
